# procedure-text: Phase 1 pharmacokinetics of ilorasertib in plasma
# Format: in vivo, human
# study-conditions: human, plasma, po, 80 mg
measured-metric: AUC(0-inf) (ng·h/mL)
Your answer is read as ng·h/mL, so omit the unit and give the number.

Record summary for `Nc1ncc(-c2cnn(CCO)c2)c2scc(-c3ccc(NC(=O)Nc4cccc(F)c4)cc3)c12` : reported AUC(0-inf) = 1260

* * *

# procedure-text: Phase 1 pharmacokinetics of ilorasertib in plasma
# Type: in vivo, human
# study-conditions: human, plasma, po, 320 mg, AUC0–24, arm B, oral twice weekly, 320 mg, day 15, N=4, mean ± SD
measured-metric: AUC(0-t) (ng·h/mL)
Value expressed in ng·h/mL; do not type the unit.

The compound `Nc1ncc(-c2cnn(CCO)c2)c2scc(-c3ccc(NC(=O)Nc4cccc(F)c4)cc3)c12` showed AUC(0-t) equal to 30700

* * *

# procedure-text: Phase 1 pharmacokinetics of ilorasertib in plasma
# Format: in vivo, human
# study-conditions: human, plasma, po, 440 mg
measured-metric: AUC(0-t) (ng·h/mL)
Value expressed in ng·h/mL; do not type the unit.

The compound identified as `Nc1ncc(-c2cnn(CCO)c2)c2scc(-c3ccc(NC(=O)Nc4cccc(F)c4)cc3)c12` registered its AUC(0-t) at 13500

* * *

# procedure-text: Phase 1 pharmacokinetics of ilorasertib in plasma
# Format: in vivo, human
# study-conditions: human, plasma, po, 10 mg, AUC0–24, arm A, oral once weekly, first dose, N=3, mean ± SD
measured-metric: AUC(0-t)

Briefly, AUC(0-t) measured for Nc1ncc(-c2cnn(CCO)c2)c2scc(-c3ccc(NC(=O)Nc4cccc(F)c4)cc3)c12 [Ilorasertib] : 660 ng·h/mL

* * *

# procedure-text: Phase 1 pharmacokinetics of ilorasertib in plasma
# Type: in vivo, human
# study-conditions: human, plasma, po, 690 mg
measured-metric: AUC(0-inf)

The reported AUC(0-inf) of the molecule `Nc1ncc(-c2cnn(CCO)c2)c2scc(-c3ccc(NC(=O)Nc4cccc(F)c4)cc3)c12` was 8460 ng·h/mL

* * *

# procedure-text: Phase 1 pharmacokinetics of ilorasertib in plasma
# Format: in vivo, human
# study-conditions: human, plasma, po, 480 mg, t1/2, arm B, oral twice weekly, 480 mg, day 1, N=7
measured-metric: half-life (h)
Number only, in h; omit the unit.

Lab note: `Nc1ncc(-c2cnn(CCO)c2)c2scc(-c3ccc(NC(=O)Nc4cccc(F)c4)cc3)c12` gave half-life of 14.9

* * *

# procedure-text: Phase 1 pharmacokinetics of ilorasertib in plasma
# Format: in vivo, human
# study-conditions: human, plasma, po, 640 mg
measured-metric: AUC(0-inf) (µg·h/mL)
The response must be a number in µg·h/mL with no trailing unit.

The compound `Nc1ncc(-c2cnn(CCO)c2)c2scc(-c3ccc(NC(=O)Nc4cccc(F)c4)cc3)c12` showed AUC(0-inf) equal to 20.3

* * *

# procedure-text: Phase 1 pharmacokinetics of ilorasertib in plasma
# Format: in vivo, human
# study-conditions: human, plasma, po, 440 mg
measured-metric: AUC(0-inf)

# AUC(0-inf) of Nc1ncc(-c2cnn(CCO)c2)c2scc(-c3ccc(NC(=O)Nc4cccc(F)c4)cc3)c12 [Ilorasertib] = 14100 ng·h/mL

* * *

# procedure-text: Phase 1 pharmacokinetics of ilorasertib in plasma
# Format: in vivo, human
# study-conditions: human, plasma, iv, 32 mg, t1/2, arm D, IV infusion, 32 mg, day 15, N=3
measured-metric: half-life (h)
The answer is to be given in h; state only the numeric part.

Looking up `Nc1ncc(-c2cnn(CCO)c2)c2scc(-c3ccc(NC(=O)Nc4cccc(F)c4)cc3)c12` , I found its half-life recorded as 5.8

* * *

# procedure-text: Phase 1 pharmacokinetics of ilorasertib in plasma
# Type: in vivo, human
# study-conditions: human, plasma, po, 480 mg, t1/2, arm B, oral twice weekly, 480 mg, day 15, N=7
measured-metric: half-life (h)
Value expressed in h; do not type the unit.

What the record says about `Nc1ncc(-c2cnn(CCO)c2)c2scc(-c3ccc(NC(=O)Nc4cccc(F)c4)cc3)c12` : half-life is 15.3

* * *

# procedure-text: Phase 1 pharmacokinetics of ilorasertib in plasma
# Assay type: in vivo, human
# study-conditions: human, plasma, po, 340 mg
measured-metric: AUC(0-inf) (ng·h/mL)
The answer is to be given in ng·h/mL; state only the numeric part.

For record `Nc1ncc(-c2cnn(CCO)c2)c2scc(-c3ccc(NC(=O)Nc4cccc(F)c4)cc3)c12` the listed AUC(0-inf) is 6010
